# tested-on: cyclooxygenase (Rattus norvegicus)
# Construct: incubating a test compound with heparinised rat blood; endogenous in cells
# Sequence (Q63921 27-602): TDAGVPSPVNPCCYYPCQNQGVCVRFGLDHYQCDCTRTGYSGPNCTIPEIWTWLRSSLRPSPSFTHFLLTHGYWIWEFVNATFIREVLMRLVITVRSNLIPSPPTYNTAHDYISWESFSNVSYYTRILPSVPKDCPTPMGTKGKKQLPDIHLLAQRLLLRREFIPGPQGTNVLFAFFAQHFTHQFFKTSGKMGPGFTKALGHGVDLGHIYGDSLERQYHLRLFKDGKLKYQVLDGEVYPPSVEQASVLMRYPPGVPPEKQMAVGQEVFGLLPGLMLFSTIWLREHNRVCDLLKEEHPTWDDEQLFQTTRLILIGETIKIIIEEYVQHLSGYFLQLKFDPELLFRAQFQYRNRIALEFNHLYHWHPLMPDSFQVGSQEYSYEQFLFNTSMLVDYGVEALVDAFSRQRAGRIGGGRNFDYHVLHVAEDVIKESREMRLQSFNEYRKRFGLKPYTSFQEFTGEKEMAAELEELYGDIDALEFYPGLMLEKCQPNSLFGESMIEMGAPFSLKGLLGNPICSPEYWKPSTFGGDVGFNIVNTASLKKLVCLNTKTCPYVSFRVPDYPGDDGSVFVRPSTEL
# experiment-summary: Test (b): in vitro heparinised rat blood, A23187 challenge, PGE2 radioimmunoassay (cyclooxygenase)
reported-endpoint: pIC50
Remember the convention: pIC50 equals -log10 of concentration in molar.

Incoming: Query: pIC50; subject: O=c1c2ccccc2[nH]n1Cc1cccc2ccccc12 [Example 1]
Outgoing: 4.00

====

# tested-on: 5-LO (Rattus norvegicus, UniProt P12527)
# Construct: challenge with A23187 and radioimmunoassay of LTB4 and PGE2; endogenous in cells
# Sequence (P12527 whole entry): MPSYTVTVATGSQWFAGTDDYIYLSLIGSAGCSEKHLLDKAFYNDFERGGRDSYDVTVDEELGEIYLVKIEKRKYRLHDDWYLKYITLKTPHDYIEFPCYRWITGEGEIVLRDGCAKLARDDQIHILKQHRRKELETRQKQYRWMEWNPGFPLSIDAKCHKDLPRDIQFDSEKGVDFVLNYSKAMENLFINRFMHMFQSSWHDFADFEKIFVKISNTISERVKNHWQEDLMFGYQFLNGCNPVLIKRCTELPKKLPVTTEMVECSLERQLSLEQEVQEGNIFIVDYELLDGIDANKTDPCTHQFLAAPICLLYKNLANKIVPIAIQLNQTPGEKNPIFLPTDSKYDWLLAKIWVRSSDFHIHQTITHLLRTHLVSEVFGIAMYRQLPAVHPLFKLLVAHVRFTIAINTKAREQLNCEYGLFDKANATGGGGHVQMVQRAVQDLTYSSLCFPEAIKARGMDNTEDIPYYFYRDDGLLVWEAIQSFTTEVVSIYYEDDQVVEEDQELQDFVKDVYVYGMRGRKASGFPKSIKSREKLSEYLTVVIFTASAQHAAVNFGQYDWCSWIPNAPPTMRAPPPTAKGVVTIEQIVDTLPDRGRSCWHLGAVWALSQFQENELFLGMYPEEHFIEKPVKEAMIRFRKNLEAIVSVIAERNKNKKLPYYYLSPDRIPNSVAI
# experiment-summary: Test (b): in vitro heparinised rat blood, A23187 challenge, LTB4 radioimmunoassay (5-LO)
reported-endpoint: IC50 (nM)
Report as a plain number; the unit nM is understood.

Incoming: Query: IC50; subject: O=c1c2ccccc2[nH]n1Cc1cccc2ccccc12 [Example 1]
Outgoing: 800
